- tgt: recombinant human CYP3A5 (Homo sapiens, UniProt P20815)
- Sequence (P20815 whole entry): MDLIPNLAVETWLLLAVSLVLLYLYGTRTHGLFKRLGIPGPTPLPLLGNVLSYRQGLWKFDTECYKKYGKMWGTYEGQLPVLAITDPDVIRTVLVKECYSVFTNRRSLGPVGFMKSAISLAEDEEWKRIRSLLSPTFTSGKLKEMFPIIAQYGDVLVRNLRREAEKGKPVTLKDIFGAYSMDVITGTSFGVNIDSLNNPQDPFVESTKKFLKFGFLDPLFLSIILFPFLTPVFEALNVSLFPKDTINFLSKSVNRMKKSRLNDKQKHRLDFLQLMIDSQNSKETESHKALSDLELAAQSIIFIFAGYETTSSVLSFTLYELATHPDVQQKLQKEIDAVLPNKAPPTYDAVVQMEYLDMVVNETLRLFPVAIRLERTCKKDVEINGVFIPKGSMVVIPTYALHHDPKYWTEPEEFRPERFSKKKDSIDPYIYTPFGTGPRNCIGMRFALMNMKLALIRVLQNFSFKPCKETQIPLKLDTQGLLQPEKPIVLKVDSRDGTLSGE
- assay summary: biochemical
recorded metric: IC50 (µM)
Give just the numeric value; µM need not be written.

Exercise: Can you share its IC50? I mean this compound: Clc1ccccc1C(c1ccccc1)(c1ccccc1)n1ccnc1 [Clotrimazole]
Key: 0.164

----------
- Test system: human liver microsomes
- Assay type: in vitro ADME
- recorded conditions: N-demethylation of C152; HLM(ODN), added CYP2A6 0
recorded metric: Km
Answer format reminder: number followed by unit.

Exercise: Quick one: Km of CN(C)c1ccc2c(C(F)(F)F)cc(=O)oc2c1 [C152, 7-Dimethylamino-4-trifluromethylcoumarin] ?
Key: 3.29 µM

----------
- Tested on: human liver microsomes
- assay summary: Inhibition of C152 metabolism in human liver microsomes
- Type: biochemical
- recorded conditions: read-out: IC50 ((+)-N-3-Benzylnirvanol); HLM(FVT); 30 μM C152
recorded metric: IC50 (µM)
Respond with the bare value in µM.

Exercise: Lab note: need IC50 for CC[C@@]1(c2ccccc2)NC(=O)N(Cc2ccccc2)C1=O [(+)-N-3-Benzylnirvanol, (S)-(+)-N-3-benzylnirvanol] on human liver microsomes, anyone have it?
Key: 11

----------
- tgt: recombinant human CYP3A5 (Homo sapiens, UniProt P20815)
- assay summary: Inhibition of C152 metabolism in SS
- recorded conditions: read-out: IC50 ((+)-N-3-Benzylnirvanol); SS(3A5); 30 μM C152
recorded metric: IC50 (µM)
Answer format: numeric, µM implied, no suffix.

Exercise: Entry CC[C@@]1(c2ccccc2)NC(=O)N(Cc2ccccc2)C1=O [(+)-N-3-Benzylnirvanol, (S)-(+)-N-3-benzylnirvanol] has what IC50?
Key: 6.6

----------
- tgt: recombinant human CYP2B6 (Homo sapiens, UniProt P20813)
- Sequence (P20813 whole entry): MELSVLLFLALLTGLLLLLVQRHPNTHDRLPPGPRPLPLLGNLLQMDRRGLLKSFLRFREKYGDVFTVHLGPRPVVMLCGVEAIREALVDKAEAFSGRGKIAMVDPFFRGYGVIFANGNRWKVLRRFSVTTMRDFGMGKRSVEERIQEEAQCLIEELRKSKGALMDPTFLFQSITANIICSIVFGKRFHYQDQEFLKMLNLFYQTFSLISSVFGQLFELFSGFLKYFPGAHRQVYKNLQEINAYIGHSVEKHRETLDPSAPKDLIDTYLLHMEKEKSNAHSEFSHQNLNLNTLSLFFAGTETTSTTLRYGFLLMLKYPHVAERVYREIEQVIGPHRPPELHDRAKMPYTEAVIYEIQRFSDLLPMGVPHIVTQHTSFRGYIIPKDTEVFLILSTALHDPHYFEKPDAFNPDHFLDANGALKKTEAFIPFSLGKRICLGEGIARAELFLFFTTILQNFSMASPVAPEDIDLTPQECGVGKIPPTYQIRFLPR
- assay summary: Inhibition of C152 metabolism in SS
- recorded conditions: read-out: IC50 ((+)-N-3-Benzylnirvanol); SS(2B6); 30 μM C152
recorded metric: IC50 (µM)
Record the value in µM, omitting the unit from your answer.

Exercise: If you can, please state the reported IC50 value of CC[C@@]1(c2ccccc2)NC(=O)N(Cc2ccccc2)C1=O [(+)-N-3-Benzylnirvanol, (S)-(+)-N-3-benzylnirvanol] .
Key: 8.5

----------
- Tested on: human liver microsomes
- assay summary: Inhibition of C152 metabolism in human liver microsomes
- Type: biochemical
- recorded conditions: read-out: IC50 ((+)-N-3-Benzylnirvanol); HLM(LFJ); 30 μM C152
recorded metric: IC50 (nM)
Quick note: give the figure in nM, leave out the unit.

Exercise: Give its IC50 value. Item: CC[C@@]1(c2ccccc2)NC(=O)N(Cc2ccccc2)C1=O [(+)-N-3-Benzylnirvanol, (S)-(+)-N-3-benzylnirvanol]
Key: 490

----------
- tgt: recombinant human CYP3A4 (Homo sapiens, UniProt P08684)
- Sequence (P08684 2-503 limits assumed): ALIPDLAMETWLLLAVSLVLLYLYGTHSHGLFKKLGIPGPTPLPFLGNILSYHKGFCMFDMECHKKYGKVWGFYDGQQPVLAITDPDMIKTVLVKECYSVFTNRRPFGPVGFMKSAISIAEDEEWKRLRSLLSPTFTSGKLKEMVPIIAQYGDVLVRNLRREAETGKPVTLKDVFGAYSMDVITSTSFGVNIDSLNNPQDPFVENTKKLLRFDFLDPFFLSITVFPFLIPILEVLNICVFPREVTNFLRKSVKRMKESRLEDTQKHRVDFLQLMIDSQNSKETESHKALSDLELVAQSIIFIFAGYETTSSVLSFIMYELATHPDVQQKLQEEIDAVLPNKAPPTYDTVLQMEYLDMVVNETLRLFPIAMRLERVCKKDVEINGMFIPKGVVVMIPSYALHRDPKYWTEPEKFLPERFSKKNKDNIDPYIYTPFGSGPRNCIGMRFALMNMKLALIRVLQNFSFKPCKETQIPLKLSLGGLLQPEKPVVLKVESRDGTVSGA
- assay summary: Inhibition of C152 metabolism in SS
recorded metric: pIC50
Quick note: pIC50 means taking -log10 of the concentration in moles per liter.

Exercise: Quick one: pIC50 for Clc1ccc(Cc2ccncc2)cc1 ?
Key: 6.65

----------
- Tested on: human liver microsomes
- assay summary: Inhibition of C152 metabolism in human liver microsomes
- Assay type: biochemical
- recorded conditions: read-out: IC50 ((+)-N-3-Benzylnirvanol); HLM(NQO); 30 μM C152
recorded metric: pIC50
Please note pIC50 is a logarithmic value: minus log10 of concentration in mol/L. Answer with that number alone.

Exercise: Give its pIC50 value. Item: CC[C@@]1(c2ccccc2)NC(=O)N(Cc2ccccc2)C1=O [(+)-N-3-Benzylnirvanol, (S)-(+)-N-3-benzylnirvanol]
Key: 6.34

Data origin, for the record: paper PMC8260145
